tested on: KM12 colon; experiment: NCI-60 one-dose screen, 48 h (100 = growth as untreated, 0 = no growth, -100 = all killed); conditions: 10 µM
About 83,000 compounds went through this panel and 20% of them were active in at least one assay; those are over-represented in the sample as a whole. Active and inactive are the calls of the source. How the source made its calls: active means growth percent below 10; inactive means the rest.
Measured metric: growth

Sample records with growth:
CO[C@@H]1CSS[C@H]1Cn1nc(-c2ccc(Oc3ccccc3)cc2)c2c(N)ncnc21 :: 60% (inactive)
O=C(CNc1nc(-c2ccccc2)cs1)Nc1ccc([N+](=O)[O-])cc1 :: 36.7% (inactive)
COc1ccc(CN2[C@H](C(=O)NCc3ccc(C(=O)NO)cc3)Cc3c([nH]c4ccccc34)[C@H]2C2CC2)cc1 :: 44.7% (inactive)
CN1CCCN(Cc2ccc(C(=O)Nc3cccc(Nc4ccc5c(O)cccc5n4)c3)cc2C(F)(F)F)CC1 :: -11% (active)
N#Cc1c(-c2ccc(F)cc2)nc(SCc2ccc(F)cc2)nc1N1CCOCC1 :: 87.2% (inactive)

Lookup: Which measured growth value corresponds to "O=C(N/N=C/c1ccc(B(O)O)o1)c1[nH]c2ccc(Br)cc2c1-c1ccccc1" ?
Found: 15.4% (inactive)

Lookup: Which measured growth value corresponds to "N#Cc1ccc(NC(=O)CSc2ccc(-c3ccc(Br)cc3)nn2)cc1" ?
Found: 76.7% (inactive)

Lookup: Which measured growth value corresponds to "CCCCSc1nc(Nc2ccc(/C(C)=N/NC(N)=S)cc2)c(C#N)c(-c2ccc(F)cc2)n1" ?
Found: 60.2% (inactive)

Lookup: Which measured growth value corresponds to "C=CCn1c(SCC(=O)Nc2ccc(C(=O)/C=C/c3ccccc3)cc2)nnc1-c1c[nH]c2ccccc12" ?
Found: 6.81% (active)

Lookup: Which measured growth value corresponds to "CC(=O)Nc1ccc(-n2cnc3cc(-c4ccc(O)cc4)ccc32)cc1C" ?
Found: 22.1% (inactive)

Lookup: Which measured growth value corresponds to "O=c1c2ccccc2nc(COc2ccccc2)n1/N=C/c1ccc(N2CCCC2)cc1" ?
Found: 96.7% (inactive)

Lookup: Which measured growth value corresponds to O=C1CCC(N2Cc3cc(NC(=O)COc4ccccc4)ccc3C2=O)C(=O)N1 (centres undefined) ?
Found: 74.5% (inactive)

Lookup: Which measured growth value corresponds to "CCNCCCn1c2c(c3cc(OC)c(OC)cc3c1=O)C(=O)c1cc3c(nc1-2)OCO3" ?
Found: 33.7% (inactive)

Lookup: Which measured growth value corresponds to "CC(C)NC(=O)c1cc(-c2ccc(NC(=O)Nc3ccc(N4CCN(C)CC4)c(C(F)(F)F)c3)cc2)nc2cccnc12" ?
Found: -83.6% (active)

Lookup: Which measured growth value corresponds to C/C(=C\CSc1ccccc1C(=O)O)CCCC(C)CCCC(C)CCCC(C)C (centres undefined) ?
Found: 46.4% (inactive)

Lookup: Which measured growth value corresponds to COc1ccc([C@H]2C(C(=O)c3ccc(Cl)cc3)C3(N[C@@H]2c2ccccc2)C(=O)Nc2ccc(Cl)cc23)cc1 (some centres undefined) ?
Found: -23.4% (active)

Lookup: Which measured growth value corresponds to "Cc1ccc(NC(=O)c2ccc(-n3c(=O)[nH]c4ccccc4c3=O)cc2)cc1" ?
Found: 96.7% (inactive)

Lookup: Which measured growth value corresponds to CN(C)c1ccc(/C=C/C(=O)c2ccc(NC(=O)CN3C(=O)NC(C)(c4ccccc4)C3=O)cc2)cc1 (centres undefined) ?
Found: 23.7% (inactive)

Lookup: Which measured growth value corresponds to "CCOc1ccc(Nc2nc3ccccc3nc2Nc2ccc(OCC)cc2)cc1" ?
Found: 47.4% (inactive)

Recorded values, source PubChem BioAssay (NCI).
